Published Ki for UniProt Q9JI35, assembled from different documents, is shown next.
Sequence (Q9JI35 whole entry): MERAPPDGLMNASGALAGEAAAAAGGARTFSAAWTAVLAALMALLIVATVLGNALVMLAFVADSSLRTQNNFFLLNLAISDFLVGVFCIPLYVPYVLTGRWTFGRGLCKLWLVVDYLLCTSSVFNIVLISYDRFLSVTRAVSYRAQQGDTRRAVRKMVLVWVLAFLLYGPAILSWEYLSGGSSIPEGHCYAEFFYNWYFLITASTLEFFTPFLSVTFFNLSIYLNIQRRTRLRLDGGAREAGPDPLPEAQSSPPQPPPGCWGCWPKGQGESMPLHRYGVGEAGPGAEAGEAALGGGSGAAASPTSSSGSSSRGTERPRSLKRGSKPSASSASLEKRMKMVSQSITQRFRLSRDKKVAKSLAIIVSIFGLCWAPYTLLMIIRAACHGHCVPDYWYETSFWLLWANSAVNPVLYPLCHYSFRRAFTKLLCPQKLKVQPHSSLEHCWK
attribute measured: Ki (µM)

- CN(C)CCCOc1ccc(CCCN2CCC(Cc3cnc[nH]3)CC2)cc1: 0.013
- O=S(=O)(c1ccc(Cl)cc1)N(CCCCc1c[nH]cn1)Cc1ccc(Cl)cc1: 0.024

[P] C[C@H]1CNC[C@@H]1c1c[nH]cn1
[Q] C[C@H]1NCC[C@@H]1c1c[nH]cn1 (racemic)
Form field 'greater Ki' accepts P or Q ; which applies? Please indicate the selected item by its label.
Q

[I] CN(CCCCCc1c[nH]cn1)CCC(c1ccc(Cl)cc1)c1ccccn1 (stereo unspecified)
[II] Nc1cc(CN2CCC(C(=O)N3CCC(n4c(=O)[nH]c5ccccc54)CC3)CC2)ccn1
[III] c1ncc(CC2CCN(CCCOc3ccc(NC4CCCCC4)cc3)CC2)[nH]1
Reorder: Ki, max to min. Labels, ranked as asked.
I, III, II
(I: 0.05 µM, III: 0.015 µM, II: 0.0006 µM)
